The origin of these recorded values is the supplement of paper PMC10567573.

Readings of protein stability index for the listed sequences
Experiment: protein stability index of a GFP-peptide fusion (GPS, HEK-293T) (PSI 1-6); higher = more stable;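 note: 24-mer peptide tiles fused after GFP, lentivirally expressed, FACS-sorted into six equal bins by GFP/DsRed ratio, decoded by Illumina sequencing, PSI is the read-weighted mean bin number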
Details: treatment: DMSO; c terminus: a fixed tail appended
reported endpoint: protein stability index

1. IGPFGGFFASGFKRAFKIKDFANT [CDS2] = 2.32
2. GIQLLIVEYKDIASIHWDWKIALL [SLC35F2] = 2.58
3. PPPPPNEINPPPHTMEEEEDDDWG [EIF5] = 5.48
4. ERERQPCGDGNTETHRAPDLVQWT [SOAT2] = 4.92
5. KTPPSSCDSTNAAIAKQALKKPIK [KMT5A] = 5.11
6. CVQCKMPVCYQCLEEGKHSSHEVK [TRIM9] = 4.08
7. LKQLLTETDVWFSKQRKDFEGMAF [GMCL1] = 2.7
8. YKVRHVHWKTWLAIKCSPSLHVDD [RIPK4] = 2.16
9. PNVIEYYENFLEDKALMIAMEYAP [NEK8] = 2.32
10. PFLLLFLGNFFTTLRVVHHKFHSQ [TMEM120A] = 3.28
11. DLIESDPDAWCDLSKFDLPEEPSA [MYBL2] = 5.01
12. VNQPNNNGFTPLHFAAASTHGALC [ANKRD44] = 2.99
13. SFQIVLDPMLDFYSDKNAKLTKES [TENT5D] = 2.91
14. SELIVHIFSFLPAPDRLRASASCS [FBXO33] = 2.76
15. TMLTVIEQPVPPTPATPEDPAPLW [EMID1] = 3.76
16. EVVNMAVIVPKEEGVISVSEDRTV [WDFY2] = 4.04
17. PLPGKAFLRQLPFRGDDGIFDDNF [SNX3] = 3.47
18. NDTYRTDLCLLYPPFMIALACLHV [CCNC] = 3.07
19. QPVPNTTEPDYKSKDWVFLNYTYK [STK38L] = 3.33
20. PAICALRHLTSRHQEAEMAQNAVR [CTNNB1] = 3.2
21. VQLIDDFKISGMNGIHVCMVFEVL [SRPK2] = 2.73
22. TMGLAGRARVKEKFSPEAFTEQLY [ALG2] = 2.94
23. KPYECNECGKAFSQSSYLSQHRRI [ZNF232] = 2.32
24. SSVSDVKFSHSGRYMLTRDYLTVK [PPP2R2C] = 2.88
25. STLPSLREEEEQVRAHAPRGNAPP [KCNG1] = 4.43
26. LIKAGADIELGCSTPLMEAAQEGH [ANKRD17] = 4.21
27. AMAYHHDSRRIFVGQDNGAVMEFH [WDFY1] = 3.08
28. PESADTGDKSESPDEANVGKHPKD [TOR1AIP2] = 5.57
29. SDSMHIEDVEAVQKLQDVLHEALQ [ESRRG] = 3.42
30. HVEEHFQLLARRMQVDKKRVYLAT [FUT8] = 2.32
31. LELGHWLYQTELVENECYQVFLDR [TOR1AIP2] = 2.38
32. TLKQQHQQAVEQIAKAEETHSSLS [CCDC89] = 5.07
33. RTDSREQKLDAFLQPLSKPLSSQP [MLH1] = 4.32
34. YLTNCEKLSAKSLQTLRSFSHTLV [ZER1] = 2.3
35. LSGTRESLAQGPDAATTDELSSLG [TBC1D10A] = 5.23
36. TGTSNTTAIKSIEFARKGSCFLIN [RBBP5] = 2.42
37. MERRRLRGSIQSRYISMSVWTSPR [PRAME] = 2.64
38. DTYIVLAWISKIKGSPDVSASSDE [SMIM2] = 2.42
39. NVTNLEGGPGRQTTSPNVLWPTPG [ESR2] = 3.17
40. EIYKRFLTRMTRVSEFLKVAEQVG [SNAP91] = 2.44
41. SILKAMGKTKKDYQEASNLEQFVT [NECAB1] = 2.89
42. MGKRDTADIISTVEFNHTGELLAT [PPP2R2C] = 3.62
43. GNDTSPSEGTNLNAPNSLGVSALC [HNF4A] = 4.65
44. LAAALAQHSVPLQLELRAGAERLD [TRADD] = 2.97
45. CYDVYSPDKEEQLPFGPFNGTAWT [PKD2L1] = 2.75
46. ELSRSRKLYGQRERVWALAQEKAA [FCHSD1] = 3.04
47. GKVKLQQNPGKFDELDMSPGDPKW [TBC1D10A] = 4.51
48. VTDINDNAPKFQAENLDVKINENV [PCDHGA10] = 5.22
49. LTEQYTVTGLMEATQMMVDIDGDV [RHOBTB2] = 4.66
50. CLLICAEMYQVSRLQHICELFIIT [RHOBTB3] = 3.06
51. IRINPQSWFDNGSICMRMEILGCP [CPXM2] = 2.86
52. AVTSLSSQIQYMNTVVSTYVTTNV [TMEM106C] = 2.58
53. MSSRKVLAIQARKRRPKREKHPKK [SRPK2] = 4.41
